Target: T1, PABPN1 CCRRM fragment (coiled coil + RRM) (UniProt Q86U42 114-254)
T1 sequence: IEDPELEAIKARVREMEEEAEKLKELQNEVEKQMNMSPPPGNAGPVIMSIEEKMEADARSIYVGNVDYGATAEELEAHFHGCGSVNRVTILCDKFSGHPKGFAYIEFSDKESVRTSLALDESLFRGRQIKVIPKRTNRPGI
Experiment: BLI; kon 4.1e-5 (so in the source), koff 1.71e-3 s-1; text ranks A12 lowest affinity, inconsistent with values; EMSA and SHAPE: 10 mM Tris-HCl pH 8.0, 25 mM KCl, 10 mM NaCl, 1 mM MgCl2, 10% glycerol, 0.5 mM DTT, 25 C, 20 min (1M7 step at 35 C); BLI: room temperature, 0.5
Conditions: protein: recombinant; tags: Trx and His (Ni-NTA) fusion, pET-MG vector; label: 5' biotin
MEASUREMENT_LABEL: Kd (nM)
Give bare numbers, in nM.

Would you kindly share the measured Kd for AAAAAAAAAAAA (ssRNA) [A12] ? 4.17
